Target: Dbp2 WT (Saccharomyces cerevisiae, UniProt P24783 1-546)
Sequence (P24783 whole entry): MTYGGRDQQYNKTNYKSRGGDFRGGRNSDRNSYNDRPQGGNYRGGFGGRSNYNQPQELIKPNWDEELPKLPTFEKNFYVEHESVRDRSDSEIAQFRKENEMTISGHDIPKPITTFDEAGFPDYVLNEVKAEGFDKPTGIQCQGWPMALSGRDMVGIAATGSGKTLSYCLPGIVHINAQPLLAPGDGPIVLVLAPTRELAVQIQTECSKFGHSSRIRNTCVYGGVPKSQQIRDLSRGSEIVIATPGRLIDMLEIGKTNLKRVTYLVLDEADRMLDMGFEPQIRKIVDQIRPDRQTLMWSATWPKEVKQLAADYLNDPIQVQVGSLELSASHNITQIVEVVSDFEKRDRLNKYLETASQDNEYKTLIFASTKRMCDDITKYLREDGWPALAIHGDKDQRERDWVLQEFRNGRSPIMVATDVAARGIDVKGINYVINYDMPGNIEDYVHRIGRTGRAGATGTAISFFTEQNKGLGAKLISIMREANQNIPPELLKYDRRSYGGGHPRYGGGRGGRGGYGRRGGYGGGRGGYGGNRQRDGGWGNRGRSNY
Assay: fluorescence anisotropy; Anisotropy: 25 mM Tris-HCl pH 7.5, 20 mM NaCl/30 mM KCl, 2 mM MgCl2, 1 mM DTT, 5 nM labelled nucleic acid, 25 C, 5 min; EMSA: 25 mM Tris-HCl pH 7.5, 30 mM KCl
Details: protein: recombinant; tags: His6-MBP removed by TEV; label: 3' FAM
MEASURED PARAMETER: pKd
Kindly note that pKd refers to -log10 of the concentration in mol/L and answer with the value alone.

binder="UUUUUUUUUUCUCUGCUCGACG (ssRNA) [R-S22]" measured_parameter=pKd reported=7.80
binder="CUCUGCUCGACG (ssRNA) [R-S12]" measured_parameter=pKd reported=7.14

Next, consider the following binder.
[Q] Let me know recorded pKd for ACGGATGTCTAA (ssDNA) [D-S12] , thanks.
[A] 6.98
